experiment_summary: Pharmacokinetics of clarithromycin in humans, alone vs. in combination with ritonavir
Type: in vivo
recorded_conditions: oral; healthy human volunteers, 500 mg every 12 hours, single agent, day four of dosing; plasma; read-out: AUC (0-24 h)

compound	result_unit	AUC(0-t)
CC[C@H]1OC(=O)[C@H](C)[C@@H](O[C@H]2C[C@@](C)(OC)[C@@H](O)[C@H](C)O2)[C@H](C)[C@@H](O[C@@H]2O[C@H](C)C[C@H](N(C)C)[C@H]2O)[C@](C)(OC)C[C@@H](C)C(=O)[C@H](C)[C@@H](O)[C@]1(C)O [clarithromycin]	ng·h/mL	49000
